Recorded values, source ChEMBL document CHEMBL1146205.

- subject.of.test: Caspase-6 (Homo sapiens)
- Sequence (P55212 whole entry): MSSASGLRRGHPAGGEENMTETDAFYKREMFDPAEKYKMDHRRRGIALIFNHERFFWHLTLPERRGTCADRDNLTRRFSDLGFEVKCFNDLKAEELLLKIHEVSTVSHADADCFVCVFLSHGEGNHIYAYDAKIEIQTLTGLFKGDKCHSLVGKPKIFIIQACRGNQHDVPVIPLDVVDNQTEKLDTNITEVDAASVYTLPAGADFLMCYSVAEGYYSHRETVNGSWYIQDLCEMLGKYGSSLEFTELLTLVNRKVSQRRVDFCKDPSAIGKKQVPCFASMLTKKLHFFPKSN
- assay.info: Inhibition of human recombinant caspase 6
# pIC50 values compiled below
pIC50 is a log-scale quantity: -log10 of the concentration expressed in molar.

1) CN1C(=O)C(=C(C#N)C#N)c2cc(S(=O)(=O)N3CCC[C@H]3COc3ccccc3)ccc21; 6.16

Turning now to a further record.
Looking for the measured pIC50 of `N#CC(C#N)=C1C(=O)Nc2ccc(S(=O)(=O)N3CCC[C@H]3COc3ccccc3)cc21` , can you help? 6.39
